target_desc: OsWRKY34 (Oryza sativa, UniProt Q0JBA9 1-250)
Sequence (Q0JBA9 entry or part of it): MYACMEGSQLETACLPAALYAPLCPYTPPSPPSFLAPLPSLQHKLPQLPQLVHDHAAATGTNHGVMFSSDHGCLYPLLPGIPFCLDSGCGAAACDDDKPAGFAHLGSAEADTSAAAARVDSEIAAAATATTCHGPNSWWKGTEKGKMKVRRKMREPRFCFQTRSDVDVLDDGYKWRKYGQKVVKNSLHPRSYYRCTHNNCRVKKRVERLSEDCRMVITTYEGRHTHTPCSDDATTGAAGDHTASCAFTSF
test_details: protein-binding microarray (RPBM); PBS, 2% BSA, 51.3 ng/ul salmon testes DNA, 50 uM zinc acetate, 200 nM TF, 25 C, 1 h; high values mean tight binding
test_parameters: protein: recombinant; tags: N-terminal polyhistidine and DsRed monomer fusion (pET32a); label: CyDye5-dUTP incorporated in the synthesized complementary strand; 3' TTTTT single-stranded linker to array surface; dsDNA, one strand shown
Whole data set: some 68,000 sequences, median “fluorescence intensity (a.u.)” near 9,100, cut for the highest 2% near 16,000. This excerpt belongs to a sample that is enriched for the highest values.
For each entry below, report its binding signal value.

For GTTTCCTTCGTTTCAGATTACTCATTATTTTAGCTTTTTTCGGAGTCACCTAGTGCAG the sequence record lists binding signal as 13800 fluorescence intensity (a.u.)

For AGCCAACCACACACAATGAACCATACCACAGTTACCACAGCGGAGTCACCTAGTGCAG the sequence record lists binding signal as 10100 fluorescence intensity (a.u.)

For TGTCCACACTTCCCAACTCATTAAATAGTTTGTTTTTTGACGGAGTCACCTAGTGCAG the sequence record lists binding signal as 8320 fluorescence intensity (a.u.)

For TGCTGCTGGTTACTTGTATTAATACATTATAGAAAATGAGCGGAGTCACCTAGTGCAG the sequence record lists binding signal as 8070 fluorescence intensity (a.u.)

For CCGCGATCTGTTTCGTCCAGCTTAATTTGTTGCTGTTCTGCGGAGTCACCTAGTGCAG the sequence record lists binding signal as 11300 fluorescence intensity (a.u.)

For GTTCCAAAATTTTTCTTTAAACTTCCAACATTTTCATCACCGGAGTCACCTAGTGCAG the sequence record lists binding signal as 9190 fluorescence intensity (a.u.)

For GTGGGCTGGGCTTCTTCTTCGTCGTCTCATACCAATCGTGCGGAGTCACCTAGTGCAG the sequence record lists binding signal as 17100 fluorescence intensity (a.u.)

For CCGCCGCCGCCTCCTGCTCCTTCGACCTGCCCCGGCCCCGCGGAGTCACCTAGTGCAG the sequence record lists binding signal as 8870 fluorescence intensity (a.u.)

For ACGTAGGAAGGTGGAAGCGGTTTCTTGGGGTTTGGATATGCGGAGTCACCTAGTGCAG the sequence record lists binding signal as 11000 fluorescence intensity (a.u.)

For GTAGGCTTTTGTTTCGGGTGGGATAATATCTTGGGGAAAGCGGAGTCACCTAGTGCAG the sequence record lists binding signal as 20700 fluorescence intensity (a.u.)

For AATCTATCCCAGCCTAAATCTCACTGTTTCATGCACAACTCGGAGTCACCTAGTGCAG the sequence record lists binding signal as 8350 fluorescence intensity (a.u.)

For TGGTTTGCGGTGGTGCGCGCGCGGCTTCTTCTCGGGGTGGCGGAGTCACCTAGTGCAG the sequence record lists binding signal as 9070 fluorescence intensity (a.u.)

For TCCCCTTCGCCCTTCGTCGTCGTCGTCGTCGTCGTTCGTCCGGAGTCACCTAGTGCAG the sequence record lists binding signal as 8050 fluorescence intensity (a.u.)

For ACCCGCTTCTCGTCTCCTCGTCTCCTCGTTCGTCTCTCGCCGGAGTCACCTAGTGCAG the sequence record lists binding signal as 18000 fluorescence intensity (a.u.)

For AGAGTTCTTATCCTAGTTTTTCCAACTCACTTATCTCGTTCGGAGTCACCTAGTGCAG the sequence record lists binding signal as 10900 fluorescence intensity (a.u.)

For TCCCGCTTCTCCTCCGTCGCTCTCCGCCGCCGCCGCCACCCGGAGTCACCTAGTGCAG the sequence record lists binding signal as 10200 fluorescence intensity (a.u.)

For ACACAGCCACACACCAACATGCCCTTCAGGTCTTCACACTCGGAGTCACCTAGTGCAG the sequence record lists binding signal as 9550 fluorescence intensity (a.u.)

For TCGCCTATCTCTCTATCTCTTTCGCCACCGCTTGCCTCTCCGGAGTCACCTAGTGCAG the sequence record lists binding signal as 9030 fluorescence intensity (a.u.)

For GGGTGACGGGAGCAGCGGCGCGCGGGTGGTGGGGCTTGGACGGAGTCACCTAGTGCAG the sequence record lists binding signal as 10700 fluorescence intensity (a.u.)

For TTTCACTTGCTTGTTTTTCATGTCCACACTTCCCAACTCACGGAGTCACCTAGTGCAG the sequence record lists binding signal as 16600 fluorescence intensity (a.u.)

For CCACGATCACATTCACCTCCCATCCCACGACGTTGCTCTCCGGAGTCACCTAGTGCAG the sequence record lists binding signal as 8850 fluorescence intensity (a.u.)

For AAACCTCCACCACCACCGCCACCACCGCCGCGCAAAACCCCGGAGTCACCTAGTGCAG the sequence record lists binding signal as 8700 fluorescence intensity (a.u.)

For TTGGTGAGAACAGCCTTATCTCTATCGCTTTACTCTCTCTCGGAGTCACCTAGTGCAG the sequence record lists binding signal as 8150 fluorescence intensity (a.u.)

For CGTTGACTCCATCTCTTTAACATATTTTAGGAGCATGCTTCGGAGTCACCTAGTGCAG the sequence record lists binding signal as 8610 fluorescence intensity (a.u.)

For AGTAAAGTCCATCACCGGTCCCTAAACTTGTACCGCTATGCGGAGTCACCTAGTGCAG the sequence record lists binding signal as 8810 fluorescence intensity (a.u.)

For TTTGGGGCGCGGGTGGGTGGCTGGGTGCGCGTCGATCGTGCGGAGTCACCTAGTGCAG the sequence record lists binding signal as 10900 fluorescence intensity (a.u.)

For GGTATTGTTGATACTTTCAGTTTTCGCATTTGTTCGCTTCCGGAGTCACCTAGTGCAG the sequence record lists binding signal as 9230 fluorescence intensity (a.u.)

For CTCTTGGCGATTTGCGGAAGTTGTTGTTGTCCCCTTGCTCCGGAGTCACCTAGTGCAG the sequence record lists binding signal as 8060 fluorescence intensity (a.u.)

For GACGGGCGGCGGTGGGGCTGACGCGGGCGACGGAGGGGCTCGGAGTCACCTAGTGCAG the sequence record lists binding signal as 11500 fluorescence intensity (a.u.)

For GTCGTCTCATACCAATCGTGCGGCGGCGGCGGCGGGGATGCGGAGTCACCTAGTGCAG the sequence record lists binding signal as 10400 fluorescence intensity (a.u.)

For CATTTAAATCGCCATCACTCCGCGCGCTCTCCCATCCATCCGGAGTCACCTAGTGCAG the sequence record lists binding signal as 8870 fluorescence intensity (a.u.)

For GCGGCTTCTTCTCGGGGTGGATTTGGTGGTGGTTTTTTTTCGGAGTCACCTAGTGCAG the sequence record lists binding signal as 21500 fluorescence intensity (a.u.)

For AGCTTTCACCTCATTAAGACCGGTATCTGTTGAGACTTGACGGAGTCACCTAGTGCAG the sequence record lists binding signal as 8860 fluorescence intensity (a.u.)

For CTTATCTCTCTCGTTTTCCACGCACACGTTTTTCAAACCGCGGAGTCACCTAGTGCAG the sequence record lists binding signal as 8940 fluorescence intensity (a.u.)

For GTCGTCGCCTGCCTCTTCGTCGCCGCTCTCGTCTCCGCTCCGGAGTCACCTAGTGCAG the sequence record lists binding signal as 9880 fluorescence intensity (a.u.)

For GAAATGTGGGAGGGGTTTTCTTACAAATGTTATATAGACACGGAGTCACCTAGTGCAG the sequence record lists binding signal as 13900 fluorescence intensity (a.u.)

For CCCTCGTCTTCTTCTCCACGCGACGCCGGTCAAAGTTTGACGGAGTCACCTAGTGCAG the sequence record lists binding signal as 10700 fluorescence intensity (a.u.)
